- TESTED SYSTEM: Acetylcholinesterase (Homo sapiens)
- Sequence (P22303 whole entry): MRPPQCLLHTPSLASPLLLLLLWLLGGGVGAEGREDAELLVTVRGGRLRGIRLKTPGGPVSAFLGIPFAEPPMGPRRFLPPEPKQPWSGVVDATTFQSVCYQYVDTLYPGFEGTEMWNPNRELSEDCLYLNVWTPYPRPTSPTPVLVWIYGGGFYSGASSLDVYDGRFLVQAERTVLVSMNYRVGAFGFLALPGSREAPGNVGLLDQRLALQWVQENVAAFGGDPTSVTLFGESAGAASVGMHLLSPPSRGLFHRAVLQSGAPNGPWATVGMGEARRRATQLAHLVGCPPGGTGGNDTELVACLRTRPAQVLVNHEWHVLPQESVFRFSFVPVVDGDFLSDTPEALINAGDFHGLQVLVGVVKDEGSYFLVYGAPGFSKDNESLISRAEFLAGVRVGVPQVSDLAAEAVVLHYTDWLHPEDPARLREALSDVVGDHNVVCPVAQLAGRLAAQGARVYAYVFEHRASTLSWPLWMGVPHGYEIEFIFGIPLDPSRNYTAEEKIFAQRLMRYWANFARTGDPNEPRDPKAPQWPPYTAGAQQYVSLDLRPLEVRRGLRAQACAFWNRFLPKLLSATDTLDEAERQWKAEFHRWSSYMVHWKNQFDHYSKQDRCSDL
- PROCEDURE SUMMARY: Kinetic constant (k2) for acetylcholinesterase
Here, each record is paired with measured k2 data.
MEASUREMENT TYPE: k2

SMILES TEXT	MEAS VALUE
CCCCNC(=O)OCCCCCOC(=O)NCCCC	3.4 10e-3 1/s
CCCCNC(=O)OCCCCCCCCO	7.2 10e-3 1/s
CCCCNC(=O)OCCCCCCCCCCOC(=O)NCCCC	4.6 10e-3 1/s
CCCCNC(=O)OCCCCCCCCCCCCCCCCO	6.1 10e-3 1/s
CCCCNC(=O)OCCO	7.5 10e-3 1/s
CCCCNC(=O)OCCCCCCCCCCCCCCOC(=O)NCCCC	5.4 10e-3 1/s
CCCCNC(=O)OCCCCCCCCCCCCO	8.1 10e-3 1/s
